Molecular target: ZmDRIK1-R187-P492 (Zea mays)
Construct: kinase domain, R187-P492
Sequence (C0P4K9 1-514): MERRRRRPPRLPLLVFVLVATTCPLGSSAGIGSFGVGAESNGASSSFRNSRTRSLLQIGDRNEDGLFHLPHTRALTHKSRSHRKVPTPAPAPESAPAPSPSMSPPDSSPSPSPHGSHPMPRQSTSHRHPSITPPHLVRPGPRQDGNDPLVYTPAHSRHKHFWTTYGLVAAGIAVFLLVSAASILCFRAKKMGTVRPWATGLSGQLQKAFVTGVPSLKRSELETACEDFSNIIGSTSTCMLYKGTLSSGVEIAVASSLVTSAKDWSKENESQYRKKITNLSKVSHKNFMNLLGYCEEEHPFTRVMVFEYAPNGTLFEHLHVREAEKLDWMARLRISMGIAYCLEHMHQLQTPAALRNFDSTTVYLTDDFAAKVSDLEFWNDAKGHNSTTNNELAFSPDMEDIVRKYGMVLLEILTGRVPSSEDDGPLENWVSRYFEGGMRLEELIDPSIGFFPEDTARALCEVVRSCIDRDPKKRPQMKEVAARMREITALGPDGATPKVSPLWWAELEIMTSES
Experiment: biochemical
Details: read-out: dTm B, DSF, Boltzmann fit, 0.1% DMSO
recorded metric: ΔTm at 10 µM (°C)
Numbers only, in °C.

[
  {
    "compound": "CO[C@H]1C[C@@H]2CC[C@@H](C)[C@@](O)(O2)C(=O)C(=O)N2CCCC[C@H]2C(=O)O[C@H]([C@H](C)C[C@@H]2CC[C@@H](OC(=O)C(C)(CO)CO)[C@H](OC)C2)CC(=O)[C@H](C)/C=C(\\C)[C@@H](O)[C@@H](OC)C(=O)[C@H](C)C[C@H](C)/C=C/C=C/C=C/1C [Temsirolimus (CCI-779)]",
    "recorded metric": "ΔTm at 10 µM",
    "units of measure": "°C",
    "data value": -0.393
  },
  {
    "compound": "Clc1ccc(C2(c3ccc(-c4cn[nH]c4)cc3)CCNCC2)cc1 [AT7867]",
    "recorded metric": "ΔTm at 10 µM",
    "units of measure": "°C",
    "data value": -0.25
  },
  {
    "compound": "O=c1cc(N2CCOCC2)oc2c(-c3ccccc3)cccc12 [LY294002]",
    "recorded metric": "ΔTm at 10 µM",
    "units of measure": "°C",
    "data value": -0.0828
  },
  {
    "compound": "Cc1nc(NC(=O)N2CCC[C@H]2C(N)=O)sc1-c1ccnc(C(C)(C)C(F)(F)F)c1 [BYL719]",
    "recorded metric": "ΔTm at 10 µM",
    "units of measure": "°C",
    "data value": -0.328
  }
]

List reported ΔTm at 10 µM for each of these compounds:
1. O=C(Nc1c[nH]nc1-c1nc2ccc(CN3CCOCC3)cc2[nH]1)NC1CC1 [AT9283]
2. CCCS(=O)(=O)Nc1ccc(F)c(C(=O)c2c[nH]c3ncc(-c4ccc(Cl)cc4)cc23)c1F [Vemurafenib (PLX4032)]
3. CNC(=O)c1cc(Oc2ccc(NC(=O)Nc3ccc(Cl)c(C(F)(F)F)c3)c(F)c2)ccn1 [Regorafenib (BAY 73-4506)]
4. COc1ccc(S(=O)(=O)N(CCO)c2ccccc2CN(C)C/C=C/c2ccc(Cl)cc2)cc1 [KN-93 Phosphate]

Key:
-0.23
-7.37
-5.88
-1.06

* * *

Target: ZmDRIK1 (DROUGHT RESPONSIVE INACTIVE KINASE 1), kinase domain (Zea mays, UniProt C0P4K9)
Construct: gene ZEAMMB73_Zm00001d028770; ZmDRIK1-KD R187-S514 (kinase domain)
Assay: biochemical
Settings: read-out: dTm B, sheet ZmDRIK1-R187-S514;; DSF, Boltzmann fit, 0.1% DMSO
recorded metric: ΔTm at 10 µM (°C)
Give bare numbers, in °C.

Recorded results for 4 compounds are shown here.
[
  {
    "compound": "CN(C[C@@H]1COCCO1)S(=O)(=O)Nc1ccc2ccc3ncc(-c4cnn(C)c4)cc3c(=O)c2c1 [MK-2461]",
    "ΔTm at 10 µM (°C)": -1
  },
  {
    "compound": "Cc1nc(N)sc1-c1ccnc(Nc2ccc(N3CCOCC3)cc2)n1 [CYC116]",
    "ΔTm at 10 µM (°C)": -1.14
  },
  {
    "compound": "CN(C)Cc1cccc(N=C(c2ccccc2)c2c(O)[nH]c3cc(C(=O)N(C)C)ccc23)c1 [BIX 02189]",
    "ΔTm at 10 µM (°C)": -0.921
  },
  {
    "compound": "Cc1c(F)cc(C(=O)NC2CC2)cc1-c1ccc(C(=O)NCC(C)(C)C)cn1 [Losmapimod (GW856553X)]",
    "ΔTm at 10 µM (°C)": -0.594
  }
]

For each of the compounds below, note its ΔTm at 10 µM.
1. CO[C@H]1C[C@@H]2CC[C@@H](C)[C@@](O)(O2)C(=O)C(=O)N2CCCC[C@H]2C(=O)O[C@H]([C@H](C)C[C@@H]2CC[C@H](n3cnnn3)[C@H](OC)C2)CC(=O)[C@H](C)/C=C(\C)[C@@H](O)[C@@H](OC)C(=O)[C@H](C)C[C@H](C)/C=C/C=C/C=C/1C [Zotarolimus(ABT-578)]
2. CCc1nc(-c2cccc(C)c2)c(-c2ccnc(NC(=O)c3ccccc3)c2)s1 [TAK-715]
3. Cc1cc(Nc2nc(N[C@@H](C)c3ccc(F)cc3)c(C#N)cc2F)n[nH]1 [AZ 960]
4. C[C@]1(O)C[C@@H](c2nc(-c3ccc4ccc(-c5ccccc5)nc4c3)c3c(N)nccn32)C1 [OSI-906 (Linsitinib)]
5. Cc1cc(N2CCOCC2)cc2[nH]c(-c3c(NC[C@@H](O)c4cccc(Cl)c4)cc[nH]c3=O)nc12 [BMS-536924]

Key:
[-0.396, -0.0163, -0.939, -0.97, -0.852]

* * *

Biological target: ZmDRIK1 (DROUGHT RESPONSIVE INACTIVE KINASE 1), kinase domain (Zea mays, UniProt C0P4K9)
Construct: gene ZEAMMB73_Zm00001d028770; ZmDRIK1-KD R187-S514 (kinase domain)
Assay: biochemical
Settings: read-out: dTm B, sheet ZmDRIK1-R187-S514;; DSF, Boltzmann fit, 0.1% DMSO
Where a name gives a salt, the structure may show the parent alone.
recorded metric: ΔTm at 10 µM

Worked set:
[
  {
    "compound": "Cc1cc(Nc2cc(CN3CCOCC3)c3nc(C)c(Cc4ccc(Cl)cc4F)n3n2)n[nH]1 [LY2784544]",
    "system name": "ZmDRIK1 (DROUGHT RESPONSIVE INACTIVE KINASE 1), kinase domain (Zea mays, UniProt C0P4K9)",
    "ΔTm at 10 µM": "-0.894 °C"
  },
  {
    "compound": "Cc1cc(CN2CCN(c3c(Br)cnc4nc(-c5ccc(N6CCN(C)CC6)cc5)[nH]c34)CC2)no1 [CCT137690]",
    "system name": "ZmDRIK1 (DROUGHT RESPONSIVE INACTIVE KINASE 1), kinase domain (Zea mays, UniProt C0P4K9)",
    "ΔTm at 10 µM": "-1.09 °C"
  },
  {
    "compound": "NC1(c2ccc(-c3nc4ccn5c(=O)[nH]nc5c4cc3-c3ccccc3)cc2)CCC1 [MK-2206 2HCl]",
    "system name": "ZmDRIK1 (DROUGHT RESPONSIVE INACTIVE KINASE 1), kinase domain (Zea mays, UniProt C0P4K9)",
    "ΔTm at 10 µM": "-1.02 °C"
  }
]

Each compound below has a reported value. Please supply its ΔTm at 10 µM.
1. Cc1[nH]nc2ccc(-c3cncc(OC[C@@H](N)Cc4ccccc4)c3)cc12 [A-674563]
2. FC(F)(F)c1ccc(/C=C/c2nc(COc3ccc(CCCCn4ccnn4)cc3)co2)cc1 [Mubritinib (TAK 165)]

Key:
1. -0.493 °C
2. -0.964 °C

For every listed record, write down its ΔTm at 10 µM.
1. CCCCCCCCc1ccc(CCC(N)(CO)CO)cc1 [Fingolimod (FTY720) HCl]
2. Fc1cc(-c2cccc3ncc(-c4cnn(C5CCNCC5)c4)nc23)cc(F)c1CN1CCOCC1 [NVP-BSK805 2HCl]
3. CC(=O)Nc1cccc(-n2c(=O)n(C3CC3)c(=O)c3c(Nc4ccc(I)cc4F)n(C)c(=O)c(C)c32)c1 [Trametinib (GSK1120212)]
4. COc1cc2nccc(Oc3ccc(NC(=O)C4(C(=O)Nc5ccc(F)cc5)CC4)cc3)c2cc1OC [Cabozantinib malate (XL184)]
5. Cc1ncc(-c2ccnc(Nc3ccc(S(C)(=O)=O)cc3)n2)n1C(C)C [AZD5438]

Key:
1. -0.542 °C
2. -0.913 °C
3. -0.482 °C
4. -14.9 °C
5. -0.576 °C

Can you give me ΔTm at 10 µM for all of these, one by one?
1. CNC(=O)c1c(F)cccc1Nc1nc(Nc2cc3c(ccn3C(=O)CN(C)C)cc2OC)nc2[nH]ccc12 [GSK1838705A]
2. Oc1ccc(Nc2nc(-c3ccc(Cl)cc3)cs2)cc1 [SKI II]
3. N#Cc1c(NC(=O)c2cccc3ccccc23)sc2c1CCCC2 [JNK Inhibitor IX]
4. Oc1ccc2ccccc2c1SSc1c(O)ccc2ccccc12 [IPA-3]
5. N#Cc1ccc2[nH]c(O)c(-c3ccc(CN4CCOCC4)cn3)c2c1 [AZD1080]

Key:
-0.961 °C
0.0373 °C
-1.05 °C
-20.6 °C
-1.22 °C

Dear reader, for each entry below, please note its ΔTm at 10 µM.
1. Cc1cc2c(F)c(Oc3ncnn4cc(OC[C@@H](C)O)c(C)c34)ccc2[nH]1 [Brivanib (BMS-540215)]
2. COc1cc2nccc(Oc3ccc(NC(=O)NC4CC4)c(Cl)c3)c2cc1C(N)=O [Lenvatinib (E7080)]
3. COc1ccc(F)c(F)c1C(=O)c1cnc(NC2CCN(S(C)(=O)=O)CC2)nc1N [R547]
4. Cc1ccc([N+](=O)[O-])cc1S(=O)(=O)N(C)/N=C/c1cnc2ccc(Br)cn12 [PIK-75]

Key:
1: -1.28 °C; 2: -1.04 °C; 3: -0.939 °C; 4: -0.734 °C
